test: Oral bioavailability in the mouse; format: in vivo, Maus; settings: in vivo, po, 100 mg/kg, analyte Formel 1', read-out: AUD (0-->oo) (converted)
observed_property: AUC(0-inf) (ng·h/mL)

# molecule, measurement
measured = [
    ("Nc1ncc2c(ncn2COC(CO)CO)n1 [Formel 1', reference compound]", 154),
]
